All values here come from patent US7507730B2.

# experimentalTarget: Kv1.5 (Homo sapiens, UniProt P22460)
# Sequence (P22460 whole entry): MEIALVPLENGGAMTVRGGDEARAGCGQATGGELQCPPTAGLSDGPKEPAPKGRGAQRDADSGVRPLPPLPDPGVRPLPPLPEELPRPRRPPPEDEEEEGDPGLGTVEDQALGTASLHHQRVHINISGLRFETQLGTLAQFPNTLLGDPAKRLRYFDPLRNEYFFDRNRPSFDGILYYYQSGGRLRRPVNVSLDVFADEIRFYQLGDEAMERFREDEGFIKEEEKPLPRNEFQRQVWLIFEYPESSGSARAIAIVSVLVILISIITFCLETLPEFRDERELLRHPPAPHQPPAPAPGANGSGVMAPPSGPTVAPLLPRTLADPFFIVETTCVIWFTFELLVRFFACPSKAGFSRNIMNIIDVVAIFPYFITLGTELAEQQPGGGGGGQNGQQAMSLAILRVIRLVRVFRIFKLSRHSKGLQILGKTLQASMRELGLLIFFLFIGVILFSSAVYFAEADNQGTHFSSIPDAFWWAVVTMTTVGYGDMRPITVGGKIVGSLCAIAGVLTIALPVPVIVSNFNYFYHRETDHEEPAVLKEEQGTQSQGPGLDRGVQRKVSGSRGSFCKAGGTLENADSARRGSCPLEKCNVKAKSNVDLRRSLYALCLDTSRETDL
# measurementNotes: Kv1.5 inhibition assay (IKur inhibitor assay per cited references)
# Format: cell-based
# conditionLabel: at 0.3 μM
endpoint: Kv1.5% inhibition
State the value with its unit after it.

molecule | experimentalResult
CCN(C(=O)C1=C(C)Nc2cc(C)nn2C1c1ccc(Cl)c(Cl)c1)S(=O)(=O)c1c(C)noc1C (single isomer, unassigned) [Example 97 Isomer 1] | 91%

*Q* Tell me the measured Kv1.5% inhibition of CC1=C(S(=O)(=O)c2ccccc2)C(c2ccc(Cl)cc2)n2nc(C(F)(F)F)cc2N1 (single isomer, unassigned) [Example 26 Isomer 2] , please.
*A* 85.9%

*Q* What would you report for CCCS(=O)(=O)N(C)C(=O)C1=C(C)Nc2cc(C(F)(F)F)nn2C1c1ccc(Cl)c(Cl)c1 (single isomer, unassigned) [Example 91 Isomer 2] ?
*A* 52%

----------
# experimentalTarget: UniProtKB P22460
# measurementNotes: Kv1.5 inhibition assay (IKur inhibitor assay per cited references)
# Assay type: cell-based
# conditionLabel: read-out: Kv1.5 IC50
# Excerpt: Assays to determine the degree of activity of a compound as an IKur inhibitor are well known in the art and are described in references such as J. Gen. Physiol. Apr.; 101 (4):513-43, and Br. J. Pharmacol. 1995 May; 115(2):267-74.
endpoint: pIC50
A value of pIC50 is the negative decimal logarithm of a concentration given in moles per litre.

compound | experimentalTarget | experimentalResult
COc1ccc(S(=O)(=O)C2=C(C)Nc3cc(C)nn3C2c2ccc(C)c(F)c2)cc1 (single isomer, unassigned) [Example 24 Isomer 1] | UniProtKB P22460 | 6.83
CC1=C(S(=O)(=O)c2ccc(F)cc2)C(c2ccc(Cl)c(Cl)c2)n2nc(C(F)(F)F)cc2N1 (single isomer, unassigned) [Example 12 Isomer 1] | UniProtKB P22460 | 6.85
CC1=C(S(=O)(=O)C2CCCCC2)C(c2ccc(Cl)c(Cl)c2)n2nc(C)cc2N1 (single isomer, unassigned) [Example 10 Isomer 1] | UniProtKB P22460 | 7.11
CC1=C(C(=O)N(C)S(=O)(=O)C2CC2)C(c2ccc(Cl)c(Cl)c2)n2nc(C(F)(F)F)cc2N1 (single isomer, unassigned) [Example 98 Isomer 1] | UniProtKB P22460 | 6.95

*Q* Which value of pIC50 has been reported for CC1=C(S(=O)(=O)NC2CCCCC2)C(c2ccc(Cl)c(Cl)c2)n2nc(C)cc2N1 (single isomer, unassigned) [Example 38 Isomer 1] in the records?
*A* 6.97

*Q* Next: CC1=C(S(=O)(=O)c2ccc(C)cc2)C(c2ccc(Cl)c(Cl)c2)n2nc(C)cc2N1 (single isomer, unassigned) [Example 5 Isomer 2]
*A* 6.88

*Q* Likewise for CC1=C(S(=O)(=O)c2ccc(F)cc2)C(c2ccc(Cl)cc2)n2nc(C(F)(F)F)cc2N1 (single isomer, unassigned) [Example 27 Isomer 2] ?
*A* 7.04

*Q* Consider next the compound CC1=C(S(=O)(=O)c2ccc(Cl)cc2)C(c2ccc(Cl)c(Cl)c2)n2nccc2N1 (single isomer, unassigned) [Example 2 Isomer 1] in the same way.
*A* 7.04

----------
# experimentalTarget: Kv1.5 (Homo sapiens)
# measurementNotes: Kv1.5 inhibition assay (IKur inhibitor assay per cited references)
# Type: cell-based
# conditionLabel: at 0.3 μM
# Description: Assays to determine the degree of activity of a compound as an IKur inhibitor are well known in the art and are described in references such as J. Gen. Physiol. Apr.; 101 (4):513-43, and Br. J. Pharmacol. 1995 May; 115(2):267-74.
Attribute: inhibition at 0.3 µM
Please reply with the bare figure in % and do not write the unit itself.

compound | experimentalTarget | measureUnit | inhibition at 0.3 µM
CC1=C(S(=O)(=O)N2CCOCC2)C(c2ccc(Cl)c(Cl)c2)n2nc(C(F)(F)F)cc2N1 (single isomer, unassigned) [Example 66 Isomer 1] | Kv1.5 (Homo sapiens) | % | 51
CC1=C(C(=O)N(C)S(=O)(=O)c2ccccc2)C(c2ccc(Cl)c(Cl)c2)n2nccc2N1 (racemic) | Kv1.5 (Homo sapiens) | % | 79
CC1=C(S(=O)(=O)C(C)C)C(c2ccc(Cl)c(Cl)c2)n2nc(C)cc2N1 (racemic) | Kv1.5 (Homo sapiens) | % | 15.4

Okay, next one:
*Q* Quick check: inhibition at 0.3 µM of COc1ccc(S(=O)(=O)C2=C(C)Nc3cc(C(F)(F)F)nn3C2c2ccc(Cl)cc2)cc1 (single isomer, unassigned) [Example 25 Isomer 1] ?
*A* 85.6
